test system: T1, SARS-CoV-2 spike trimer S (Wuhan, SmT1) (SARS-CoV-2 Wuhan)
T1 construct: extracellular domain
experiment notes: SPR, antigen on chip
readout label: log10(kon) (log10 of the value in M⁻¹ s⁻¹)
Please interpret these as log10 of kon where kon is in M⁻¹ s⁻¹.

Before answering, review these 4 worked examples.
binder	log10(kon)
NRCoV2-SR01 VHH (VHH) VHH: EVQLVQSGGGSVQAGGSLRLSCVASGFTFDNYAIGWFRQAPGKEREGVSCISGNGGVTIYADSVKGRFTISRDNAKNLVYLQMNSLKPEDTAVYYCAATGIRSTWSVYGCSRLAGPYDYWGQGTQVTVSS	6.44
NRCoV2-06 VHH (VHH) VHH: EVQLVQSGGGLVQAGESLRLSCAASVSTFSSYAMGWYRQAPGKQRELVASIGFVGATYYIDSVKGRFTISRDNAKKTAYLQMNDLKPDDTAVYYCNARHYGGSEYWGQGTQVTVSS	4.48
NRCoV2-10 VHH (VHH) VHH: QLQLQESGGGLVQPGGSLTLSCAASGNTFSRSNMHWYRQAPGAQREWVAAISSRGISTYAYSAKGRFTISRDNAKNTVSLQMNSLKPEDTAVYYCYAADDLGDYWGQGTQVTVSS	5.68
NRCoV2-20 VHH (VHH) VHH: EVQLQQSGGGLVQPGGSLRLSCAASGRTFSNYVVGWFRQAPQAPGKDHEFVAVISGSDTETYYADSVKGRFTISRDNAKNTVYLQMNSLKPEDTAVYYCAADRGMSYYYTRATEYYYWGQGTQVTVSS	6.37

State recorded log10(kon) for all listed binders.
1. NRCoV2-02 VHH (VHH) VHH: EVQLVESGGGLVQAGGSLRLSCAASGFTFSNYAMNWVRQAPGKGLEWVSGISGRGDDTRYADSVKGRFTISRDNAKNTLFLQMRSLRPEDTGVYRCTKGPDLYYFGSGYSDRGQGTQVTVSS
2. NRCoV2-17 VHH (VHH) VHH: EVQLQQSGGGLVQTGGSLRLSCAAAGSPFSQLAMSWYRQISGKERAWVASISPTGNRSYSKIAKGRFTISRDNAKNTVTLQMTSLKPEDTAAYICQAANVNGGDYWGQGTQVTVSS

6.33
5.82

State recorded log10(kon) for all listed binders.
1. NRCoV2-04 VHH (VHH) VHH: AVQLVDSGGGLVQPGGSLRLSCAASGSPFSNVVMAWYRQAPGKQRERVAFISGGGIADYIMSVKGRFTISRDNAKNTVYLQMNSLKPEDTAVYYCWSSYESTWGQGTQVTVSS
2. NRCoV2-S2G4 VHH (VHH) VHH: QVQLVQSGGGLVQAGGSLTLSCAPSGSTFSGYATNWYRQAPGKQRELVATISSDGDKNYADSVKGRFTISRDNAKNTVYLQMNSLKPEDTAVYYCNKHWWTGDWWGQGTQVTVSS

6.29
5.95
